Biological target: T1, PPARγ ligand-binding domain, wild type, His-hPPARγ (231–505) (human, UniProt P37231-1 231-505)
T1 chain: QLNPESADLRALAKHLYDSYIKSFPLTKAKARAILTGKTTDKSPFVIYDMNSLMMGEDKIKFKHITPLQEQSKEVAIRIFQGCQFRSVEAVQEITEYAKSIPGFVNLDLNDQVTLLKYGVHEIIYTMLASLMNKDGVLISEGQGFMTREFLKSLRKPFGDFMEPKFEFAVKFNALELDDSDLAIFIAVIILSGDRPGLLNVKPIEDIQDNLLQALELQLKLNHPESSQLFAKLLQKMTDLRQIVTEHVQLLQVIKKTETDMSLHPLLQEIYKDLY
Assay: MST; with GW1929
Ends that are not written are not given here.
RECORDED METRIC: Kd (nM)

INSERT INTO results (binder, reading) VALUES
  ('EAEEPSLLKKLLLAPA (also: fluorescent label (dye and position not given here), PGC1α (PPARGC1A) residues 137-152, NR1 LXXLL motif; also called fluorescently labeled PGC1α peptide; PGC1α NR1 motif; source: bought: Thermo-Fisher (synthetic peptide)) [fluorescent PGC1α peptide (137-EAEEPSLLKKLLLAPA-152)]', 380);
